Biological target: Luciferin 4-monooxygenase (Photinus pyralis) (UniProt P08659)
Sequence (P08659 whole entry, looked up): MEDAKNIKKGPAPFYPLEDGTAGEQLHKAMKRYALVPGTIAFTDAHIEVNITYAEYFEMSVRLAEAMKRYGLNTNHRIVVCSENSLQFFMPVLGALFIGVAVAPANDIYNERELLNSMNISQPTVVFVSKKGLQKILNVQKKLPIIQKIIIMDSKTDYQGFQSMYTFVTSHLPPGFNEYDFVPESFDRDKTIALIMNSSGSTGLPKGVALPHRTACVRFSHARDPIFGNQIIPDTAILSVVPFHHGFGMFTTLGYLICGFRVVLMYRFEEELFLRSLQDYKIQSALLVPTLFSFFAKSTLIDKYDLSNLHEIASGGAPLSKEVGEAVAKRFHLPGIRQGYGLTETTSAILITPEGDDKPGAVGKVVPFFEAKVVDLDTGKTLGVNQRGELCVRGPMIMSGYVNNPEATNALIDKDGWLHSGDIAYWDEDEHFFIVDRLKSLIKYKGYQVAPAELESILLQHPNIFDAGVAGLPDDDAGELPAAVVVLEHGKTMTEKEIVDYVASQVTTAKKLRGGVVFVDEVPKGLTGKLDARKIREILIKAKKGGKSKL
Experiment: firefly luciferase enzyme inhibitors, primary screen, biochemical, luminescence, purified enzyme, 2006 set (AID 1141);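 note: cell-free assay with purified firefly luciferase at 100 ng per well in PBS; test concentration not given here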
Conditions: SteadyGlo luminescence, 30 min, higher = more signal, called active from +8 up or from −8 down
metric_name: z-score
Give bare numbers.

C=CC1c2cc(O)c(OC)cc2CCN1Cc1cc2c(cc1Br)OCO2 (centres undefined) | 0.0715

# return z-score for each item in the list
1. COC(=O)[C@@]1(Cc2ccccc2)[C@H]2c3cc(C(=O)N(C)C)n(Cc4c(CO)[nH]cc(C)c4=O)c3C[C@H]2CN1C(=O)c1ccccc1
2. CN(C)C(=O)[C@@]1(Cc2ccccc2CN=[N+]=[N-])N=C(c2ccc(OCCCO)cc2)O[C@H]1c1ccccc1CN=[N+]=[N-]
3. CO[C@]12C=C(Br)[C@@H](C[C@@H]1c1cccc(C)c1)[C@@]1(CO1)C2=O

// result
0.379
0.184
1.02

---

Experiment: P. aeruginosa biofilm formation inhibitors, primary screen, strain PAO1, LB-PBS medium, absorbance 600 nm (AID 1176); note: test concentration not given here
Conditions: P. aeruginosa PAO1 growth/biofilm, A600, 12 h; higher = more signal
Given measured z-score, output T if it is greater than or equal to 0.7 and F if not.

O=C1N(Cc2ccccc2)c2ccccc2[C@@H]2OC(c3ccc(OCCCO)cc3)=N[C@]12Cc1ccccc1 | T
CC(C)N1CC=CC23O[C@@H]4C=CCOC(=O)[C@@H]4[C@H]2C(=O)N(CCCO)[C@@H]3C1=O (some centres undefined) | F
COc1ccc([Si](C)(C)[C@H]2[C@H](CCO)O[C@@]3(C(=O)N(Cc4cccc(N5C(=O)COc6ccccc65)c4)c4ccccc43)[C@@H]2C)cc1 | T
COC(=O)c1c2oc(c1C(=O)OC)C(=O)N(C)Cc1cn(nn1)C[C@H](Cc1ccccc1)NC(=O)N[C@H](CO)CC2 | F
CCOC(=O)C[C@H]1[C@H](OC(=O)c2cc3ccccc3oc2=O)[C@@H](NC(=O)Cc2ccc(OC)cc2)c2cc(OCCCO)ccc2N1C(=O)c1ccc2ccccc2n1 | F

// query Hello, I need to know if C=CCC(OC(C)=O)[C@@H]1[C@@H](N(Cc2ccc(-c3ccccc3)cc2)C(=O)Cc2ccc(F)cc2)c2cc(OCCCO)ccc2N1C(=O)Cc1ccc(OC)cc1 (some centres undefined) has measured z-score not below 0.7. Thanks!
// result F

// query Could you please find out whether O=C(N1CCCCC1)[C@@]1(CCS(=O)(=O)c2ccccc2)COC(c2ccc(OCCCO)cc2)=N1 has z-score that meets 0.7 or exceeds it?
// result F

// query Given NC(=O)N1C(=O)C2C(C1=O)C1C=C(CCCO)C2C(c2cccs2)N1Cc1cccc(OC(F)(F)F)c1 (centres undefined) , state whether its z-score is at least 0.7.
// result F

// query In plain terms: is recorded z-score at least 0.7 for COc1ccc(CN(C2=CC[C@@]3(C(N)=O)C(=O)C(Cl)=C(Cl)C(=O)[C@@]3(C#N)C2)S(=O)(=O)c2ccc(Br)cc2)cc1 ?
// result F

---

Assignment: determine reported composite z-score for the given compounds.
Test system: Human papillomavirus type 1a E7 protein (residues 1-88)
Assay: HPV1a E7 small-molecule binders, primary screen, biochemical, small-molecule microarray, residues 1-88, 635 nm (AID 1129)
Conditions: small-molecule microarray binding, fluorescence 635 nm; higher = more signal
One number for each entry.

COCCCNC(=O)[C@@]1(Cc2ccccc2CN=[N+]=[N-])N=C(c2ccc(OCCCO)cc2)O[C@H]1c1ccccc1 | 1.23
O=C1OCC=C[C@H]2OC34C=CCN(Cn5nnc6ccccc65)C(=O)[C@H]3N(CCCO)C(=O)[C@@H]4[C@@H]12 (stereo partly specified) | -0.603
O=C1O[C@H](c2ccccc2)[C@H](c2ccccc2)N2[C@H]1[C@@H](C(=O)N1CCN(c3ncccn3)CC1)[C@]1(C(=O)Nc3ccc(C#CC4(O)CCCCCC4)cc31)[C@H]2c1ccc(OCCO)cc1 | 1.23
CC(C)(C)OC(=O)CC[C@@]1(C(=O)NCc2ccccc2)N=C(c2ccc(OCCCO)cc2)O[C@@H]1c1ccccc1N=[N+]=[N-] | 1.25

Go through the list and state composite z-score for each entry.
1. CCOC(=O)C1=C[C@@H](c2ccccc2)N(S(=O)(=O)c2ccc(C)cc2)[C@H]1c1ccccc1Cl
2. O=C1O[C@@H](c2ccccc2)[C@@H](c2ccccc2)N2[C@@H](c3ccccc3OCCO)[C@]3(C(=O)Nc4ccc(C#CCCO)cc43)[C@@H](C(=O)N3CCCCCCC3)[C@H]12

// result
1: 1.17; 2: 1.3
